This collection of values is drawn from the NIST ThermoML archive (doi:10.1021/acs.jced.5b00860).

conditions: 343.15 K; 101.33 kPa; Liquid; Vibrating tube method
± gives the expanded uncertainty stated by the source.
Task for the reader: assign each of the following compounds its reported mass density.

I'm hoping you can list mass density for every compound here, please.
1. CCC[n+]1ccn(C)c1.O=P([O-])(O)O [1-methyl-3-propylimidazolium dihydrogen phosphate]
2. CCn1cc[n+](C)c1C.O=S(=O)([O-])O [1-ethyl-2,3-dimethylimidazolium hydrogen sulfate]
3. CCCCC[n+]1ccn(C)c1.O=P([O-])(O)O [1-methyl-3-pentylimidazolium dihydrogen phosphate]
4. CCCCn1cc[n+](C)c1.O=C([O-])O [1-butyl-3-methylimidazolium hydrogen carbonate]
5. CCCCCn1cc[n+](C)c1.O=C([O-])O [3-methyl-1-pentylimidazolium hydrogen carbonate]

Response line:
1: 1163.66 ± 4.7 kg/m3; 2: 1221.18 ± 4.9 kg/m3; 3: 1113.49 ± 4.5 kg/m3; 4: 1125.52 ± 4.5 kg/m3; 5: 1110.3 ± 4.5 kg/m3

* * *

conditions: 328.15 K; 101.33 kPa; Liquid; Concentric cylinders viscometry
Consider the following compounds; for each one, report its viscosity.
Numbers only, in mPa·s.

Before answering, review these 8 worked examples.
compound: CCCCCn1cc[n+](C)c1C.O=S(=O)([O-])O [2,3-dimethyl-1-pentylimidazolium hydrogen sulfate]
quantitativeResult: 113
--
compound: CCn1cc[n+](C)c1C.O=S(=O)([O-])O [1-ethyl-2,3-dimethylimidazolium hydrogen sulfate]
quantitativeResult: 30.2
--
compound: CCCCn1cc[n+](C)c1.O=P([O-])(O)O [1-butyl-3-methylimidazolium dihydrogen phosphate]
quantitativeResult: 36.75
--
compound: CCCCC[n+]1ccn(C)c1.O=P([O-])(O)O [1-methyl-3-pentylimidazolium dihydrogen phosphate]
quantitativeResult: 56.55
--
compound: CCCn1cc[n+](C)c1C.O=S(=O)([O-])O [2,3-dimethyl-1-propylimidazolium hydrogen sulfate]
quantitativeResult: 47.83
--
compound: CCCCn1cc[n+](C)c1C.O=S(=O)([O-])O [1-butyl-2,3-dimethylimidazolium hydrogen sulfate]
quantitativeResult: 74.49
--
compound: CCCCCn1cc[n+](C)c1.O=C([O-])O [3-methyl-1-pentylimidazolium hydrogen carbonate]
quantitativeResult: 26.92
--
compound: CCC[n+]1ccn(C)c1.O=P([O-])(O)O [1-methyl-3-propylimidazolium dihydrogen phosphate]
quantitativeResult: 17.17

API: the following record is the query input.
Prompt line: Which value of viscosity has been reported for CCCCn1cc[n+](C)c1.O=C([O-])O [1-butyl-3-methylimidazolium hydrogen carbonate] in the records?
Response line: 18.54

* * *

Please provide measured mass density for the entries that follow.
conditions: 308.15 K; 101.33 kPa; Liquid; Vibrating tube method
Give bare numbers, in kg/m3.

Please review the following examples before continuing.
molecule: CCCCC[n+]1ccn(C)c1.O=P([O-])(O)O [1-methyl-3-pentylimidazolium dihydrogen phosphate]
mass density / kg/m3: 1135.81

molecule: CCCCn1cc[n+](C)c1.O=P([O-])(O)O [1-butyl-3-methylimidazolium dihydrogen phosphate]
mass density / kg/m3: 1169.69

For each of the items listed, what is its mass density?
1. CCCCCn1cc[n+](C)c1.O=C([O-])O [3-methyl-1-pentylimidazolium hydrogen carbonate]
2. CCCCCn1cc[n+](C)c1C.O=S(=O)([O-])O [2,3-dimethyl-1-pentylimidazolium hydrogen sulfate]
3. CCCn1cc[n+](C)c1C.O=S(=O)([O-])O [2,3-dimethyl-1-propylimidazolium hydrogen sulfate]

Response line:
1: 1134.77; 2: 1183.89; 3: 1225.73

* * *

Give measured viscosity for each item. Keep answers brief.
conditions: 298.15 K; 101.33 kPa; Liquid; Concentric cylinders viscometry
Give bare numbers, in mPa·s.

molecule: CCCCCn1cc[n+](C)c1.O=C([O-])O [3-methyl-1-pentylimidazolium hydrogen carbonate]
quantitativeResult: 108.6
//
molecule: CCCCn1cc[n+](C)c1.O=C([O-])O [1-butyl-3-methylimidazolium hydrogen carbonate]
quantitativeResult: 73.73
//
molecule: CCC[n+]1ccn(C)c1.O=P([O-])(O)O [1-methyl-3-propylimidazolium dihydrogen phosphate]
quantitativeResult: 61.92
//
molecule: CCCCC[n+]1ccn(C)c1.O=P([O-])(O)O [1-methyl-3-pentylimidazolium dihydrogen phosphate]
quantitativeResult: 205
//
molecule: CCCCCn1cc[n+](C)c1C.O=S(=O)([O-])O [2,3-dimethyl-1-pentylimidazolium hydrogen sulfate]
quantitativeResult: 462.8

Dear reader, for each entry below, please note its viscosity.
1. CCn1cc[n+](C)c1C.O=S(=O)([O-])O [1-ethyl-2,3-dimethylimidazolium hydrogen sulfate]
2. CCCn1cc[n+](C)c1C.O=S(=O)([O-])O [2,3-dimethyl-1-propylimidazolium hydrogen sulfate]
3. CCCCn1cc[n+](C)c1.O=P([O-])(O)O [1-butyl-3-methylimidazolium dihydrogen phosphate]
4. CCCCn1cc[n+](C)c1C.O=S(=O)([O-])O [1-butyl-2,3-dimethylimidazolium hydrogen sulfate]

Response line:
1. 186
2. 263.7
3. 125.6
4. 355.2

* * *

For each of the compounds below, state its mass density.
conditions: 318.15 K; 101.33 kPa; Liquid; Vibrating tube method
Numbers after ± are expanded uncertainties.
Write the numeric value and append its unit.

compound: CCCCC[n+]1ccn(C)c1.O=P([O-])(O)O [1-methyl-3-pentylimidazolium dihydrogen phosphate]
mass density: 1129.43 ± 4.5 kg/m3

For the 2 compounds below, give their mass density values.
1. CCC[n+]1ccn(C)c1.O=P([O-])(O)O [1-methyl-3-propylimidazolium dihydrogen phosphate]
2. CCCCn1cc[n+](C)c1.O=P([O-])(O)O [1-butyl-3-methylimidazolium dihydrogen phosphate]

Response line:
["1181.43 ± 4.7 kg/m3", "1162.8 ± 4.7 kg/m3"]

* * *

conditions: 298.15 K; 101.33 kPa; Liquid; Vibrating tube method
Give mass density for every item shown.
One number for each entry, in kg/m3.

molecule: CCn1cc[n+](C)c1C.O=S(=O)([O-])O [1-ethyl-2,3-dimethylimidazolium hydrogen sulfate]
valueKind: mass density
readingUnit: kg/m3
quantitativeResult: 1254.43
--
molecule: CCCCC[n+]1ccn(C)c1.O=P([O-])(O)O [1-methyl-3-pentylimidazolium dihydrogen phosphate]
valueKind: mass density
readingUnit: kg/m3
quantitativeResult: 1142.29
--
molecule: CCCCn1cc[n+](C)c1.O=P([O-])(O)O [1-butyl-3-methylimidazolium dihydrogen phosphate]
valueKind: mass density
readingUnit: kg/m3
quantitativeResult: 1176.54

Look at each molecule and report its mass density.
1. CCC[n+]1ccn(C)c1.O=P([O-])(O)O [1-methyl-3-propylimidazolium dihydrogen phosphate]
2. CCCCn1cc[n+](C)c1.O=C([O-])O [1-butyl-3-methylimidazolium hydrogen carbonate]

Response line:
[1195.45, 1157.08]

* * *

conditions: 303.15 K, Maximal bubble pressure
Threshold rule: surface tension liquid-gas greater than or equal to 40 mN/m is Met; below that, Not met.

Prompt line: Could you verify whether the entry CCC[n+]1ccn(C)c1.O=P([O-])(O)O [1-methyl-3-propylimidazolium dihydrogen phosphate] shows surface tension liquid-gas of no less than 40 mN/m?
Response line: Met

Prompt line: Same lookup for CCn1cc[n+](C)c1C.O=S(=O)([O-])O [1-ethyl-2,3-dimethylimidazolium hydrogen sulfate] , please.
Response line: Met

Prompt line: And CCCn1cc[n+](C)c1C.O=S(=O)([O-])O [2,3-dimethyl-1-propylimidazolium hydrogen sulfate] ?
Response line: Met

* * *

conditions: 333.15 K; 101.33 kPa; Liquid; Concentric cylinders viscometry
Assign labels as follows, please: Fulfilled for viscosity below 40 mPa·s; Not fulfilled for viscosity equal to or exceeding 40 mPa·s.

Take a look at these entries with their results.
compound: CCCCn1cc[n+](C)c1C.O=S(=O)([O-])O [1-butyl-2,3-dimethylimidazolium hydrogen sulfate]
qualitativeLabel: Not fulfilled
//
compound: CCCn1cc[n+](C)c1C.O=S(=O)([O-])O [2,3-dimethyl-1-propylimidazolium hydrogen sulfate]
qualitativeLabel: Fulfilled
//
compound: CCCCn1cc[n+](C)c1.O=C([O-])O [1-butyl-3-methylimidazolium hydrogen carbonate]
qualitativeLabel: Fulfilled

Shifting focus to the compound that follows.
Prompt line: Bench note: check whether CCn1cc[n+](C)c1C.O=S(=O)([O-])O [1-ethyl-2,3-dimethylimidazolium hydrogen sulfate] shows viscosity below 40 mPa·s
Response line: Fulfilled

* * *

conditions: 328.15 K; 101.33 kPa; Liquid; Vibrating tube method
valueKind: mass density (kg/m3)
Numbers only, in kg/m3.

Take a look at these entries with their results.
compound: CCn1cc[n+](C)c1C.O=S(=O)([O-])O [1-ethyl-2,3-dimethylimidazolium hydrogen sulfate]
readingUnit: kg/m3
mass density: 1232.2
--
compound: CCCCCn1cc[n+](C)c1C.O=S(=O)([O-])O [2,3-dimethyl-1-pentylimidazolium hydrogen sulfate]
readingUnit: kg/m3
mass density: 1171.29
--
compound: CCCn1cc[n+](C)c1C.O=S(=O)([O-])O [2,3-dimethyl-1-propylimidazolium hydrogen sulfate]
readingUnit: kg/m3
mass density: 1211.74

Prompt line: Name the recorded mass density for CCCCC[n+]1ccn(C)c1.O=P([O-])(O)O [1-methyl-3-pentylimidazolium dihydrogen phosphate] .
Response line: 1122.94
